- System: SW480
- assay text: Cytotoxicity against human SW480 cells by MTT assay
- Type: functional, cell-based
Rule: IC50 below 20 µM gives true. Equal to or above 20 µM gives false.

Field: example entries. Status: answers known.
> print(dat)
                               entry.smiles  classification
1  C=C1C(=O)[C@]23[C@H](OC(=O)CN)[C@@H]1CC[C@H]2[C@@]12CO[C@]3(O)[C@@H](O)[C@@H]1C(C)(C)CCC2=O           false
2  C=C1C(=O)[C@]23[C@H](OC(=O)CN)[C@@H]1CC[C@H]2[C@@]12CO[C@]3(O)[C@@H](O)[C@@H]1C(C)(C)CC[C@@H]2OC(C)=O           false
3  C=C1C(=O)[C@]23[C@H](OC(=O)CN)[C@@H]1CC[C@H]2[C@@]12CO[C@]3(O)[C@@H](O)[C@@H]1C(C)(C)CC[C@@H]2OS(=O)(=O)CCC           false
4  C=C1C(=O)[C@]23[C@H](OC(=O)CNC(=O)/C=C/C(=O)O)[C@@H]1CC[C@H]2[C@@]12CO[C@]3(O)[C@@H](O)[C@@H]1C(C)(C)CC[C@@H]2OC(C)=O            true

Let's switch to this molecule now.
**Q:** Decide: IC50 of C=C1C(=O)[C@]23[C@H](OC(=O)CNC(=O)CCC(=O)O)[C@@H]1CC[C@H]2[C@@]12CO[C@]3(O)[C@@H](O)[C@@H]1C(C)(C)CCC2=O strictly below 20 µM?
**A:** true

This collection of values is drawn from ChEMBL document CHEMBL1155921.
